Each entry below lists one item and its recorded remaining activity at 10 µM value.
# Target: Rsk1 (Homo sapiens)
# Construct: purchased Eurofins Pharma Discovery Services (KinaseProfiler; Cerep BioPrint panel)
# Sequence (Q15418 whole entry): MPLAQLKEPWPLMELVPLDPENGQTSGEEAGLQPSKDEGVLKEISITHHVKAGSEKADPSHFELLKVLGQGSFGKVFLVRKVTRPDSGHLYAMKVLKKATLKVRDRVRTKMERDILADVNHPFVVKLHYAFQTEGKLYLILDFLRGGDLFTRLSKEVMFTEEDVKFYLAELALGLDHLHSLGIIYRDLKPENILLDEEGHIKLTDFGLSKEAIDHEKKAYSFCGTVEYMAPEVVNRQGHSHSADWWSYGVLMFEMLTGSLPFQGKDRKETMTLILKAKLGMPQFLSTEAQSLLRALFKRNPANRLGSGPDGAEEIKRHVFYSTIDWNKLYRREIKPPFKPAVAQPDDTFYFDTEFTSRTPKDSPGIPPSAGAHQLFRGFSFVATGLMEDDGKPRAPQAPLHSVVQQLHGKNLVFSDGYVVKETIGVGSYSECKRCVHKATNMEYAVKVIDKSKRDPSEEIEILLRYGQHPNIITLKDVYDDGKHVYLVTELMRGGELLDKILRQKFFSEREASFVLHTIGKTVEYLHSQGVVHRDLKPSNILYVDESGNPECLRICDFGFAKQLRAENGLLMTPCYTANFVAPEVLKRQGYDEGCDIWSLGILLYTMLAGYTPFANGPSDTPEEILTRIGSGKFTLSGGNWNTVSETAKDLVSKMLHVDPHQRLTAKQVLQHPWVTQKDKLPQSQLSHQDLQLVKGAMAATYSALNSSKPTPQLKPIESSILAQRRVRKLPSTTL
# Experiment: kinase selectivity panel
# Format: biochemical
# Cond: read-out: percentage of control activity (POC), Rsk1
Output spec: scalar in %, unitless text.

Solved cases (4 shown):
Compound | Measure unit | remaining activity at 10 µM
CC(C)(C)N1CCC(c2cc(-c3ccc(F)cc3Cl)c3cc[n+]([O-])c(-c4c(Cl)cccc4Cl)c3n2)CC1 | % | 104
Cc1ccc(C(=O)NCC2CC2)cc1-c1ccc2c(c1)NC(=O)C21CCCC1 | % | 100
COc1c(NC(=O)c2ccc(C)c(-c3nnc4c(NCC(C)(C)C)nccn34)c2)cc(C(C)(C)C)cc1NS(C)(=O)=O [compound 7, reference compound] | % | 132
Cn1cc(-c2cccc(-c3nc(C(=O)NC4C5CC6CC4CC(O)(C6)C5)c(N)nc3N)c2)cn1 (centres unmarked) | % | 87

Pending compound:
remaining activity at 10 µM for "CS(=O)(=O)N1CCN(c2ccc(Nc3ncc(C(N)=O)c(NC4CC4)n3)cc2)CC1" is 1

* * *

# Target: CK2α2 (Homo sapiens, UniProt P19784)
# Construct: purchased Eurofins Pharma Discovery Services (KinaseProfiler; Cerep BioPrint panel)
# Sequence (P19784 whole entry): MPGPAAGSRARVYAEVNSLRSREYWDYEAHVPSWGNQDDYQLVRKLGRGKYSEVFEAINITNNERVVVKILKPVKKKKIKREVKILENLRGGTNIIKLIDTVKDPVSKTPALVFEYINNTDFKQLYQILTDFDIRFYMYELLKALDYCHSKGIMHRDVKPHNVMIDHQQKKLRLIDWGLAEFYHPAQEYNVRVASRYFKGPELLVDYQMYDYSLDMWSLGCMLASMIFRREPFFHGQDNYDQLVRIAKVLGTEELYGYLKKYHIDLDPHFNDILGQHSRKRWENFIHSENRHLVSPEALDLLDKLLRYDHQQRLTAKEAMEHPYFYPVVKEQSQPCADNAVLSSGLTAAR
# Experiment: kinase selectivity panel
# Type: biochemical
# Cond: read-out: percentage of control activity (POC), CK2α2
Observation type: remaining activity at 10 µM (%)
Output spec: scalar in %, unitless text.

Compound | Target | Measure unit | Reading
CC(C)(C)N1CCC(c2cc(-c3ccc(F)cc3Cl)c3cc[n+]([O-])c(-c4c(Cl)cccc4Cl)c3n2)CC1 | CK2α2 (Homo sapiens, UniProt P19784) | % | 105
Cn1cc(-c2cccc(-c3nc(C(=O)NC4C5CC6CC4CC(O)(C6)C5)c(N)nc3N)c2)cn1 (centres unmarked) | CK2α2 (Homo sapiens, UniProt P19784) | % | 105
CS(=O)(=O)N1CCN(c2ccc(Nc3ncc(C(N)=O)c(NC4CC4)n3)cc2)CC1 | CK2α2 (Homo sapiens, UniProt P19784) | % | 43
COc1c(NC(=O)c2ccc(C)c(-c3nnc4c(NCC(C)(C)C)nccn34)c2)cc(C(C)(C)C)cc1NS(C)(=O)=O [compound 7, reference compound] | CK2α2 (Homo sapiens, UniProt P19784) | % | 114

Pending compound:
remaining activity at 10 µM for "Cc1ccc(C(=O)NCC2CC2)cc1-c1ccc2c(c1)NC(=O)C21CCCC1" is 108

* * *

# Target: PI3K (p110d/p85a) (Homo sapiens, UniProt O00329)
# Construct: Eurofins Pharma Discovery Services (contract assay service)
# Sequence (O00329 whole entry): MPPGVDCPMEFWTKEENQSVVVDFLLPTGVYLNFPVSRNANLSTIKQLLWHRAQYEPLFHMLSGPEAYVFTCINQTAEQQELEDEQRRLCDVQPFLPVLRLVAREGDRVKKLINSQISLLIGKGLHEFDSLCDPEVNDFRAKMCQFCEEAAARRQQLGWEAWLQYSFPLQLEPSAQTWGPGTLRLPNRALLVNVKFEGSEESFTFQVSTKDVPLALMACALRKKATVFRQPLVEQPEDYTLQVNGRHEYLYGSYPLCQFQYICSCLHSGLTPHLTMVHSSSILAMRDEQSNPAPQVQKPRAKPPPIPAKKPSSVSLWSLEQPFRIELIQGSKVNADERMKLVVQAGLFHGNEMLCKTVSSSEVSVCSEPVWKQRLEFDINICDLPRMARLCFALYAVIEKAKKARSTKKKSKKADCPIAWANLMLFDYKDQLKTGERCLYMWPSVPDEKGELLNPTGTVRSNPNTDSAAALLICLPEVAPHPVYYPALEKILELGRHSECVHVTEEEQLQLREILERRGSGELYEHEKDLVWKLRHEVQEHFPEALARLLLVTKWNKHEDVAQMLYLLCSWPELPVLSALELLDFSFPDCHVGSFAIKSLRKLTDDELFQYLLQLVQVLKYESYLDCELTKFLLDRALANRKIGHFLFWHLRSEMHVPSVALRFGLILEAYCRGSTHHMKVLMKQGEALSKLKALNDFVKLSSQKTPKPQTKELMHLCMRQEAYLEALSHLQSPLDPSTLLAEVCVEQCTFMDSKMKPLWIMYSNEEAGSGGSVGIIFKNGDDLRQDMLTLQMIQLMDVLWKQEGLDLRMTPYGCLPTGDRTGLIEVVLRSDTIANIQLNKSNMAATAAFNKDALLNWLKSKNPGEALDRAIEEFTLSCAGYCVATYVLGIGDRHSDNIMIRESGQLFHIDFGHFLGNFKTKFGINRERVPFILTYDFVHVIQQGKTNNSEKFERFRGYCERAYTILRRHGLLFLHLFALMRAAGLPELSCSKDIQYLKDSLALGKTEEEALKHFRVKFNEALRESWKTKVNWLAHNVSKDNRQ
# Sequence (P27986 whole entry partner): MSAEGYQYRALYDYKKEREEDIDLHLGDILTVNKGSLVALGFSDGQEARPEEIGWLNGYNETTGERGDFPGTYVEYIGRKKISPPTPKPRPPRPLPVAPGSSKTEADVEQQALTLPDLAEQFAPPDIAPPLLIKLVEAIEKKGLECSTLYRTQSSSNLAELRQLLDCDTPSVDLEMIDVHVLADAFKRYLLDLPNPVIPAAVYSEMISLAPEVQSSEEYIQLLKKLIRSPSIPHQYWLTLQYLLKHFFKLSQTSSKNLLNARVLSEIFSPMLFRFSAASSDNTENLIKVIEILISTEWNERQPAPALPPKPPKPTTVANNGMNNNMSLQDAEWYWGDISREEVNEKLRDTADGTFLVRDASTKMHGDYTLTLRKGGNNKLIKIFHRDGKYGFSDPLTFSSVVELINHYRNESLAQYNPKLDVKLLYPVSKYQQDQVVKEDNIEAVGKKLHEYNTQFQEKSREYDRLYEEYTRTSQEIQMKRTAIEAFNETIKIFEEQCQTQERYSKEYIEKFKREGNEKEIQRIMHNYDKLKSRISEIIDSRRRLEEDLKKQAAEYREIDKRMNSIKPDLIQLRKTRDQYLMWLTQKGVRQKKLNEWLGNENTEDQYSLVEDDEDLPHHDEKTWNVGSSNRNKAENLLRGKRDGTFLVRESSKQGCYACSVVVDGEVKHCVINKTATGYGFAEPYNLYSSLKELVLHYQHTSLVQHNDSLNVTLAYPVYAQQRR
# Experiment: kinase selectivity panel
# Assay type: biochemical
# Cond: biochemical dose response, duplicate; read-out: Inhibition of indicated activity (IC50, μM): PI3K (p110δ/p85α)
# Experimental: Kinase selectivity was evaluated at Eurofins Pharma Discovery Services using a selection of 125 representative kinases tested at a concentration of 10 μM in duplicate (S3 Table). IC50 values for selected activities were further characterized at 9 duplicate concentrations. DNA-PK activity was determined at the SelectScreen® Biochemical kinase Profiling Service of Thermo Fisher Scientific.
Observation type: IC50 (µM)
Output spec: scalar in µM, unitless text.

Simply: Cn1cc(-c2cccc(-c3nc(C(=O)NC4C5CC6CC4CC(O)(C6)C5)c(N)nc3N)c2)cn1 (stereo not shown) [compound 4] , PI3K (p110d/p85a) (Homo sapiens, UniProt O00329), IC50 = 0.233
